The reader will find reported Ki values listed item by item below.
Target: Adenosylhomocysteinase (Bos taurus)
Test: Binding affinity against S-adenosyl-homocysteine hydrolase
Output spec: scalar in µM, unitless text.

> print(dat)
                                   compound  quantitative.readout
1  Nc1ncnc2c1nnn2C1CC(CO)C(O)C1O (configuration not stated)                    22

Now take the following compound into account.
Query: What measured Ki goes with Nc1nccc2c1ncn2[C@@H]1C[C@H](CO)[C@@H](O)[C@H]1O [3-DEAZAARISTEROMYCIN A] ?
Reply: 0.004
